These data points were gathered from PubChem BioAssay AID1159580.

experiment: chemical genetic growth profiling, strain panel (AID 1159580);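 also: tested at 20 µM; growth read once vehicle control cultures reached saturation at 30 °C; 1 = growth at the plate median or of vehicle wells; lower values mean less growth of the strain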; settings: S. cerevisiae deletion strains, growth OD, locus YLR370C, strain arc18, stronger effect = lower value
About 2,000 (36%) of roughly 5,500 compounds were called active. Not shown: some 18% with an inconclusive outcome. The list shows a part of the results.
measuredProperty: normalized growth
One number for each entry.

Recorded results for 8 compounds are shown here.
* O=C1OCCN1/N=C\c1ccc([N+](=O)[O-])o1 | 0.942
* Nc1nccs1 | 0.991
* c1ccc(-c2ccc(C(c3ccccc3)n3ccnc3)cc2)cc1 (stereo not drawn) | 0.0619
* O=C(O)c1cc(=O)c2c(OCC(O)COc3cccc4oc(C(=O)O)cc(=O)c34)cccc2o1 | 0.974
* O=C(NC(=O)c1c(F)cccc1F)Nc1cc(Cl)c(OC(F)(F)C(F)C(F)(F)F)cc1Cl (stereo not drawn) | 0.986
* C#C[C@]1(O)CCC2C3CCc4cc(OC)ccc4C3CC[C@@]21C (stereo partly drawn) | 0.966
* O=C(O)c1cc(=O)c(O)c2c(O)c(O)c(O)cc2c1 | 0.347
* OC1CCCCC1N1CCC(c2ccccc2)CC1 (stereo not drawn) | 0.992

Hi there! I need normalized growth for each item below, if you can.
1. O=c1cccc2n1C[C@H]1CNCC2C1
2. CN(C)CCCO[C@H]1[C@@H](C(O)CO)OC2OC(C)(C)O[C@@H]21 (stereo partly drawn)
3. c1ccc2[nH]c(-c3cscn3)nc2c1

Data returned:
1: 0.99; 2: 0.977; 3: 0.975

Hi there! I need normalized growth for each item below, if you can.
1. CC(COc1ccccc1)N(CCCl)Cc1ccccc1 (stereo not drawn)
2. CS(=O)(=O)OCCCCOS(C)(=O)=O
3. NC(=O)N/N=C\c1ccc([N+](=O)[O-])o1
4. COS(C)(=O)=O
5. C[C@](N)(Cc1ccc(O)cc1)C(=O)O
6. CCCN(CCC)C(=O)C(CCC(=O)O)NC(=O)c1ccccc1 (stereo not drawn)

Data returned:
0.963
1.03
0.997
1
1
0.984

Hi there! I need normalized growth for each item below, if you can.
1. CC12CCCC(O)(C1)C1CC(C)(C)C1CC2 (stereo not drawn)
2. NC(=O)c1cc[n+](CC2=C(C(=O)O)N3C(=O)C(NC(=O)C(c4ccccc4)S(=O)(=O)[O-])C3SC2)cc1 (stereo not drawn)
3. Nc1ccc(S(=O)(=O)Nc2nccs2)cc1
4. C[C@@H]1CC2C3CCC4=CC(=O)C=C[C@]4(C)[C@@]3(F)[C@@H](O)C[C@]2(C)[C@@]1(O)C(=O)COP(=O)(O)O (stereo partly drawn)
5. O=C1O[C@@H](CO)[C@H](O)[C@@H](O)[C@@H]1O
6. COc1ccc(C[C@H](N)C(=O)N[C@@H]2[C@@H](CO)OC(n3cnc4c(N(C)C)ncnc43)[C@@H]2O)cc1 (stereo partly drawn)

Data returned:
[0.981, 1, 1.02, 0.972, 1.03, 0.985]

###

assay: chemical genetic growth profiling, strain panel (AID 1159580);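 also: tested at 20 µM; growth read once vehicle control cultures reached saturation at 30 °C; 1 = growth at the plate median or of vehicle wells; lower values mean less growth of the strain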; details: S. cerevisiae deletion strains, growth OD, locus YCL061C, strain MRC1, stronger effect = lower value
About 2,000 (36%) of roughly 5,500 compounds were called active. Not shown: some 18% with an inconclusive outcome. The list shows a part of the results.
measuredProperty: normalized growth

Recorded results for 3 compounds are shown here.
• Cc1ccc(CS/C(N)=N\N)cc1 = 0.98 (inactive)
• NC(=O)N/N=C\c1ccc([N+](=O)[O-])o1 = 1.01 (inactive)
• CN(C)CCCO[C@H]1[C@@H](C(O)CO)OC2OC(C)(C)O[C@@H]21 (some centres undefined) = 0.987 (inactive)

Data request: Note normalized growth for the compound shown: OC1CCCCC1N1CCC(c2ccccc2)CC1 (centres undefined)
Data returned: 0.993 (inactive)
